Assay Remarks: in vitro
Condition Label: rhesus monkey, plasma
Description: Fraction unbound in monkey plasma by ultracentrifugation method
Please go through the items and note down their fraction unbound.

Fill in: fraction unbound of Cc1ccc(C)c(OCCCC(C)(C)C(=O)O)c1 [GEMFIBROZIL] is ___
0.007

Try this compound too: O=C(c1ccc(OCCN2CCCCC2)cc1)c1c(-c2ccc(O)cc2)sc2cc(O)ccc12 [RALOXIFENE]
0.004

Another compound: O=C([O-])Cc1ccccc1Nc1c(Cl)cccc1Cl.[Na+] [DICLOFENAC SODIUM]
0.005

Next entry: O=C1Nc2ccc(Cl)cc2C(c2ccccc2Cl)=NC1O (centres undefined) [LORAZEPAM]
0.103

Input CN(C)CCCN1c2ccccc2CCc2ccccc21.Cl [IMIPRAMINE HYDROCHLORIDE]
0.03

Also, COc1ccc2c(c1)c(CC(=O)O)c(C)n2C(=O)c1ccc(Cl)cc1 [INDOMETHACIN] please.
0.005

Please answer likewise for C[C@H]1COc2c(N3CCN(C)CC3)c(F)cc3c(=O)c(C(=O)O)cn1c23.Cl [LEVOFLOXACIN HYDROCHLORIDE]
0.871

Next record, please: "CCCc1nc2c(C)cc(-c3nc4ccccc4n3C)cc2n1Cc1ccc(-c2ccccc2C(=O)O)cc1"
0.008

Please give the result for COc1c(C)c2c(c(O)c1C/C=C(\C)CCC(=O)O)C(=O)OC2 [MYCOPHENOLIC ACID] too.
0.011

----------
Assay Remarks: Plasma clearance in po dosed human
Condition Label: plasma
Provide the reported log10 CL/F of each item.
Response schema: value (number) is log10 of CL/F in units of mL/min/kg.

Please give the measured log10 CL/F for this molecule: O=C1Nc2ccc(Cl)cc2C(c2ccccc2Cl)=NC1O (stereo unspecified)
0.08

What would you report for "COc1ccc2c(c1)c(CC(=O)O)c(C)n2C(=O)c1ccc(Cl)cc1" ?
0.20

Now give it for "COc1c(C)c2c(c(O)c1C/C=C(\C)CCC(=O)O)C(=O)OC2" too.
0.55

Repeat for the following molecule: "CCCc1nc2c(C)cc(-c3nc4ccccc4n3C)cc2n1Cc1ccc(-c2ccccc2C(=O)O)cc1"
1.25

# iterate: C[C@H]1COc2c(N3CCN(C)CC3)c(F)cc3c(=O)c(C(=O)O)cn1c23.Cl [LEVOFLOXACIN HYDROCHLORIDE]
0.28

Please give the result for "Cc1cn([C@H]2C[C@H](N=[N+]=[N-])[C@@H](CO)O2)c(=O)[nH]c1=O" too.
1.52

----------
Assay Remarks: Plasma clearance in human
Condition Label: in vivo
Assignment: determine reported clearance for the given compounds.
Supply the numeric figure in mL/min/kg, leaving out any unit text.

Give the measured clearance of "Cc1ccc(C)c(OCCCC(C)(C)C(=O)O)c1" .
1.7

Request: O=C([O-])Cc1ccccc1Nc1c(Cl)cccc1Cl.[Na+] [DICLOFENAC SODIUM]
3.5

----------
Assay Remarks: clinical
Condition Label: human, in vivo
Description: Volume of distribution at steady state in human
I'd be grateful if you could share measured Vd for these entries.
Expressed in L/kg, but write only the number.

Quick check: Vd of O=C([O-])Cc1ccccc1Nc1c(Cl)cccc1Cl.[Na+] [DICLOFENAC SODIUM] ?
0.22

Consider next the compound "Cc1ccc(C)c(OCCCC(C)(C)C(=O)O)c1" in the same way.
1.11

Moving on to C[C@H]1COc2c(N3CCN(C)CC3)c(F)cc3c(=O)c(C(=O)O)cn1c23.Cl [LEVOFLOXACIN HYDROCHLORIDE]
1.2

Same thing, different compound: CN(C)CCCN1c2ccccc2CCc2ccccc21.Cl [IMIPRAMINE HYDROCHLORIDE]
12

Now consider "COc1c(C)c2c(c(O)c1C/C=C(\C)CCC(=O)O)C(=O)OC2" .
4.75

And "COc1ccc2c(c1)c(CC(=O)O)c(C)n2C(=O)c1ccc(Cl)cc1" ?
0.925

----------
Assay Remarks: in vitro
Condition Label: human, plasma
Description: Fraction unbound in human plasma by ultracentrifugation method
Test Readout: fraction unbound
Answer with a number only.

Which measured fraction unbound value corresponds to "Cc1ccc(C)c(OCCCC(C)(C)C(=O)O)c1" ?
0.005

Also "Cc1cn([C@H]2C[C@H](N=[N+]=[N-])[C@@H](CO)O2)c(=O)[nH]c1=O" , if possible.
0.695

Another: O=C([O-])Cc1ccccc1Nc1c(Cl)cccc1Cl.[Na+] [DICLOFENAC SODIUM]
0.003

And the next one, O=C1Nc2ccc(Cl)cc2C(c2ccccc2Cl)=NC1O (stereo not drawn) ?
0.057

Now try "CCCc1nc2c(C)cc(-c3nc4ccccc4n3C)cc2n1Cc1ccc(-c2ccccc2C(=O)O)cc1" .
0.003

Param item: "O=C(c1ccc(OCCN2CCCCC2)cc1)c1c(-c2ccc(O)cc2)sc2cc(O)ccc12"
0.002

Another compound: C[C@H]1COc2c(N3CCN(C)CC3)c(F)cc3c(=O)c(C(=O)O)cn1c23.Cl [LEVOFLOXACIN HYDROCHLORIDE]
0.784

Next compound up: CN(C)CCCN1c2ccccc2CCc2ccccc21.Cl [IMIPRAMINE HYDROCHLORIDE]
0.104

----------
Assay Remarks: Drug metabolism in bile duct-cannulated rat assessed as glucuronide concentration in bile and urine at 0.2 mg/kg, iv up to 24 hrs by LC/MS/MS analysis
Assay type: ADME, organism-based
Design: dose 0.2 mg/kg, route intravenous
Condition Label: in vivo
The label t is reserved for Fm strictly under 0.05; f covers values equal to or above it.

Answer whether the molecule O=C(c1ccc(OCCN2CCCCC2)cc1)c1c(-c2ccc(O)cc2)sc2cc(O)ccc12 [RALOXIFENE] has Fm strictly less than 0.05
f

Please do the same for NS(=O)(=O)c1cc(C(=O)O)c(NCc2ccco2)cc1Cl [FUROSEMIDE] as well.
f

Similarly, COc1ccc2c(c1)c(CC(=O)O)c(C)n2C(=O)c1ccc(Cl)cc1 [INDOMETHACIN] ?
t

Queued: Cc1ccc(C)c(OCCCC(C)(C)C(=O)O)c1 [GEMFIBROZIL]
f

Try this molecule too: Cc1cn([C@H]2C[C@H](N=[N+]=[N-])[C@@H](CO)O2)c(=O)[nH]c1=O [ZIDOVUDINE]
t

Likewise for C[C@H]1COc2c(N3CCN(C)CC3)c(F)cc3c(=O)c(C(=O)O)cn1c23.Cl [LEVOFLOXACIN HYDROCHLORIDE] ?
f

----------
Assay Remarks: clinical
Condition Label: human, in vivo
For each record, write down the corresponding half-life.
Entry rule: numbers only, all in h.

half-life lookup needed for "CCCc1nc2c(C)cc(-c3nc4ccccc4n3C)cc2n1Cc1ccc(-c2ccccc2C(=O)O)cc1" , thanks.
7.29

Lookup "Cc1ccc(C)c(OCCCC(C)(C)C(=O)O)c1"
7.6

And for "COc1c(C)c2c(c(O)c1C/C=C(\C)CCC(=O)O)C(=O)OC2" ?
16.6

What would you report for O=C([O-])Cc1ccccc1Nc1c(Cl)cccc1Cl.[Na+] [DICLOFENAC SODIUM] ?
0.726

"Cc1cn([C@H]2C[C@H](N=[N+]=[N-])[C@@H](CO)O2)c(=O)[nH]c1=O" ?
0.832

----------
Assay Remarks: Drug metabolism in gallbladder-cannulated mouse assessed as glucuronide concentration in bile and urine at 0.2 mg/kg, iv up to 24 hrs by LC/MS/MS analysis
Assay type: ADME, organism-based
Set-up: dose 0.2 mg/kg, route intravenous
Condition Label: in vivo
Test Readout: Fm

Entry O=C([O-])Cc1ccccc1Nc1c(Cl)cccc1Cl.[Na+] [DICLOFENAC SODIUM] : reported Fm = ?
0.261

Please give the result for Cc1cn([C@H]2C[C@H](N=[N+]=[N-])[C@@H](CO)O2)c(=O)[nH]c1=O [ZIDOVUDINE] too.
0.034

Another molecule to look at: "CCCc1nc2c(C)cc(-c3nc4ccccc4n3C)cc2n1Cc1ccc(-c2ccccc2C(=O)O)cc1"
0.118

Then this molecule: COc1ccc2c(c1)c(CC(=O)O)c(C)n2C(=O)c1ccc(Cl)cc1 [INDOMETHACIN]
0.001

What do you have for C[C@H]1COc2c(N3CCN(C)CC3)c(F)cc3c(=O)c(C(=O)O)cn1c23.Cl [LEVOFLOXACIN HYDROCHLORIDE] ?
0.229

# iterate: Cc1ccc(C)c(OCCCC(C)(C)C(=O)O)c1 [GEMFIBROZIL]
0.173

Another molecule: NS(=O)(=O)c1cc(C(=O)O)c(NCc2ccco2)cc1Cl [FUROSEMIDE]
0.005

Now consider O=C1Nc2ccc(Cl)cc2C(c2ccccc2Cl)=NC1O (stereo unspecified) [LORAZEPAM] .
0.436

What do you get for CC(C(=O)O)c1cccc(C(=O)c2ccccc2)c1 (stereo unspecified) [KETOPROFEN] ?
0.01

Do the same for O=C(c1ccc(OCCN2CCCCC2)cc1)c1c(-c2ccc(O)cc2)sc2cc(O)ccc12 [RALOXIFENE] please
0.243

How about this molecule: COc1c(C)c2c(c(O)c1C/C=C(\C)CCC(=O)O)C(=O)OC2 [MYCOPHENOLIC ACID]
0.966
